Give IC50 neutralization, 18 hour virus/Ab incubation for every item shown.
Target: HIV-1 92BR020 Env (HIV-1 strain 92BR020)
Test Protocol: cell-based or functional assay

Binder: 1456_P20 (PG20) (antibody, human IgG1, kappa, V domains shown) VH: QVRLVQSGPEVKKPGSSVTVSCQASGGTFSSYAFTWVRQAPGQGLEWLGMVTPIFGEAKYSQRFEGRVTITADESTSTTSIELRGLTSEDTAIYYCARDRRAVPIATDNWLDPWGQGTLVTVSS VL: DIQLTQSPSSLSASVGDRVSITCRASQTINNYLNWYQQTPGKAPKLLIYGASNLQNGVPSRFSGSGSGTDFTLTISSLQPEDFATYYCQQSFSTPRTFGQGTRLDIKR
Measurement: > 50 µg/mL

For each of the binders below, note its IC50 neutralization, 18 hour virus/Ab incubation.
1. 1443_C16 (PG16) (TCN-116) (antibody, V domains shown) VH: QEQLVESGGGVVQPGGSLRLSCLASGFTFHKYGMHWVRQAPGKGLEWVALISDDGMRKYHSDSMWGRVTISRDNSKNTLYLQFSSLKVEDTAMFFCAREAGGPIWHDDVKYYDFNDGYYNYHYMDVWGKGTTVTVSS VL: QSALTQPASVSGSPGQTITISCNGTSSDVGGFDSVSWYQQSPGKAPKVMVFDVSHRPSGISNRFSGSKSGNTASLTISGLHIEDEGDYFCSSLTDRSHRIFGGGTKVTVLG
2. 1495_C14 (PGC14) (antibody, human IgG1, lambda, V domains shown) VH: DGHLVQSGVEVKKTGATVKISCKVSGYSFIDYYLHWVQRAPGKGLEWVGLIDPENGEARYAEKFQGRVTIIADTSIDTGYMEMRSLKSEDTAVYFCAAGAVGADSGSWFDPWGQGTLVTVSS VL: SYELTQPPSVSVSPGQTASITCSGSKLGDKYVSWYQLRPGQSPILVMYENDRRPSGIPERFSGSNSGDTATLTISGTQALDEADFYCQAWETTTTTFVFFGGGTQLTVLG
3. 1460_G14 (PGG14) (antibody, human IgG1, kappa, V domains shown) VH: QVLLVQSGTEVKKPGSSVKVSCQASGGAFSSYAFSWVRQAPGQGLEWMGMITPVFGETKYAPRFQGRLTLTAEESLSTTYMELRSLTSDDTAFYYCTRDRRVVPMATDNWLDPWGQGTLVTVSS VL: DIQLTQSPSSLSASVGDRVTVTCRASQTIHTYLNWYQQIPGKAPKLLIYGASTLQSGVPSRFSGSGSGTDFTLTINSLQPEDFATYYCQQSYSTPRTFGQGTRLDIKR

1: > 50 µg/mL; 2: 0.244 µg/mL; 3: > 50 µg/mL

The reported numbers originate from patent US20160264649A1.
